assay: 2-hour (peak) antiretroviral drug levels in blood; conditions: human, blood, po, mean 2-hour drug level, controls without diarrhea or wasting, oral ARV therapy
measured property: concentration at 2 h (ng/mL)

[a] Nc1ccn([C@@H]2CS[C@H](CO)O2)c(=O)n1 [3TC, lamivudine, reference compound]
[b] O=c1[nH]cnc2c1ncn2[C@H]1CC[C@@H](CO)O1 [ddI, didanosine, reference compound]
Decide: a or b , by lowest recorded concentration at 2 h. Write down the label of the entry you select.
b

----------
assay: 2-hour (peak) antiretroviral drug levels in blood; conditions: human, blood, po, mean 2-hour drug level, study patients with diarrhea and wasting, oral ARV therapy
measured property: concentration at 2 h (ng/mL)

[P] O=c1[nH]cnc2c1ncn2[C@H]1CC[C@@H](CO)O1 [ddI, didanosine, reference compound]
[Q] Nc1ccn([C@@H]2CS[C@H](CO)O2)c(=O)n1 [3TC, lamivudine, reference compound]
Decide: P or Q , by lowest recorded concentration at 2 h. Write down the label of the entry you select.
P
(P: 397 ng/mL, Q: 1500 ng/mL)
